Experiment: Solubility of CFMQ in vehicles
Type: physicochemical
Conditions: water
ENDPOINT_NAME: solubility

Please give measured solubility of the following entry: "Cc1cc(Cl)c(COc2cccc3c(-n4cc(F)cn4)cc(C)nc23)c(Cn2cccc(C#N)c2=O)n1"
< 10 µg/mL

###

Assay: Pharmacokinetics, single oral gavage, CD-1 mice
Format: in vivo, female CD-1 mice
Conditions: female, CD-1, mouse, plasma, 100 mg/kg, 60 min, read-out: Average Concentration of HGT3711
ENDPOINT_NAME: concentration at 60 min (ng/mL)
Output spec: scalar in ng/mL, unitless text.

Please give measured concentration at 60 min of the following entry: "Cc1cc(Cl)c(COc2cccc3c(-n4cc(F)cn4)cc(C)nc23)c(Cn2cccc(C#N)c2=O)n1"
5170

###

Test: Plasma kinetics, intravenous, Sprague-Dawley rats
Format: in vivo, female Sprague-Dawley rats
Details: female, Sprague-Dawley, rat, plasma; IV 1 mg/kg, 1.0 hr; read-out: Average Concentration of HGT3711
ENDPOINT_NAME: concentration at 1 hr (µg/mL)
Output spec: scalar in µg/mL, unitless text.

Please give measured concentration at 1 hr of the following entry: "Cc1cc(Cl)c(COc2cccc3c(-n4cc(F)cn4)cc(C)nc23)c(Cn2cccc(C#N)c2=O)n1"
0.248

###

Experiment: Pharmacokinetics, single oral gavage, 2 formulations, Wistar and Sprague-Dawley rats
Type: in vivo
Conditions: male, Sprague-Dawley, rat, plasma, po, 75 mg/kg, Formulation 1, S-D (Male)
ENDPOINT_NAME: AUC(0-inf)

Please give measured AUC(0-inf) of the following entry: Cc1cc(Cl)c(COc2cccc3c(-n4cc(F)cn4)cc(C)nc23)c(Cn2cccc(C#N)c2=O)n1 [CFMQ]
435 ng·h/mL

###

Assay: Plasma kinetics, intravenous, Sprague-Dawley rats
Format: in vivo, female Sprague-Dawley rats
Details: female, Sprague-Dawley, rat, plasma; IV 1 mg/kg; read-out: Vss
ENDPOINT_NAME: Vd

Please give measured Vd of the following entry: Cc1cc(Cl)c(COc2cccc3c(-n4cc(F)cn4)cc(C)nc23)c(Cn2cccc(C#N)c2=O)n1 [CFMQ]
2.6 L/kg

###

Assay: Pharmacokinetics, single oral gavage, CD-1 mice
Format: in vivo, female CD-1 mice
Settings: female, CD-1, mouse, plasma, 250 mg/kg, 120 min, read-out: Average Concentration of HGT3711
ENDPOINT_NAME: concentration at 120 min
Your reply should be a number followed by the unit it is expressed in.

Please give measured concentration at 120 min of the following entry: Cc1cc(Cl)c(COc2cccc3c(-n4cc(F)cn4)cc(C)nc23)c(Cn2cccc(C#N)c2=O)n1 [CFMQ]
4570 ng/mL

###

Assay: Pharmacokinetics, single oral gavage, CD-1 mice
Format: in vivo, female CD-1 mice
Conditions: female, CD-1, mouse, plasma, 250 mg/kg, 60 min, read-out: Average Concentration of HGT3711
ENDPOINT_NAME: concentration at 60 min
Your reply should be a number followed by the unit it is expressed in.

Please give measured concentration at 60 min of the following entry: "Cc1cc(Cl)c(COc2cccc3c(-n4cc(F)cn4)cc(C)nc23)c(Cn2cccc(C#N)c2=O)n1"
10400 ng/mL

###

Assay: Pharmacokinetics, single oral gavage, CD-1 mice
Assay type: in vivo, female CD-1 mice
Details: female, CD-1, mouse, plasma, 450 mg/kg, 10 min, read-out: Average Concentration of HGT3711
ENDPOINT_NAME: concentration at 10 min (ng/mL)
Output spec: scalar in ng/mL, unitless text.

Please give measured concentration at 10 min of the following entry: Cc1cc(Cl)c(COc2cccc3c(-n4cc(F)cn4)cc(C)nc23)c(Cn2cccc(C#N)c2=O)n1 [CFMQ]
11600

###

Test: Pharmacokinetics, single oral gavage, 2 formulations, Wistar and Sprague-Dawley rats
Type: in vivo
Settings: male, Wistar, rat, plasma, po, 75 mg/kg, Formulation 1, Wistar (Male)
ENDPOINT_NAME: half-life (h)
Output spec: scalar in h, unitless text.

Please give measured half-life of the following entry: "Cc1cc(Cl)c(COc2cccc3c(-n4cc(F)cn4)cc(C)nc23)c(Cn2cccc(C#N)c2=O)n1"
4.28

###

Assay: Solubility of CFMQ in vehicles
Format: physicochemical
Details: Tween 80 (polyoxyethylene (80) sorbitan monolaurate), aqueous with cosolvent or surfactant or cyclodextrin
ENDPOINT_NAME: solubility
Your reply should be a number followed by the unit it is expressed in.

Please give measured solubility of the following entry: Cc1cc(Cl)c(COc2cccc3c(-n4cc(F)cn4)cc(C)nc23)c(Cn2cccc(C#N)c2=O)n1 [CFMQ]
3500 µg/mL

###

Experiment: Pharmacokinetics, single oral gavage, 2 formulations, Wistar and Sprague-Dawley rats
Assay type: in vivo
Conditions: male, Wistar, rat, plasma, po, 150 mg/kg, Formulation 1, Wistar (Male)
ENDPOINT_NAME: AUC(0-t) (ng·h/mL)
Output spec: scalar in ng·h/mL, unitless text.

Please give measured AUC(0-t) of the following entry: "Cc1cc(Cl)c(COc2cccc3c(-n4cc(F)cn4)cc(C)nc23)c(Cn2cccc(C#N)c2=O)n1"
309

###

Assay: Pharmacokinetics, single oral gavage, 2 formulations, Wistar and Sprague-Dawley rats
Format: in vivo
Details: male, Wistar, rat, plasma, po, 15 mg/kg, Formulation 1, Wistar (Male)
ENDPOINT_NAME: AUC(0-t) (ng·h/mL)
Output spec: scalar in ng·h/mL, unitless text.

Please give measured AUC(0-t) of the following entry: "Cc1cc(Cl)c(COc2cccc3c(-n4cc(F)cn4)cc(C)nc23)c(Cn2cccc(C#N)c2=O)n1"
218

###

Experiment: Plasma kinetics, intravenous, CD-1 mice
Assay type: in vivo, female CD-1 mice
Conditions: female, CD-1, mouse, plasma; IV 1 mg/kg
ENDPOINT_NAME: half-life (min)
Output spec: scalar in min, unitless text.

Please give measured half-life of the following entry: "Cc1cc(Cl)c(COc2cccc3c(-n4cc(F)cn4)cc(C)nc23)c(Cn2cccc(C#N)c2=O)n1"
33.6

###

Assay: Pharmacokinetics, single oral gavage, Yucatan mini-pig
Type: in vivo, female Yucatan Miniature Swine
Details: female, Yucatan, pig (minipig), plasma; PO 10 mg/kg, 0.25 hr; read-out: Average Concentration of HGT3711
ENDPOINT_NAME: concentration at 0.25 hr (ng/mL)
Output spec: scalar in ng/mL, unitless text.

Please give measured concentration at 0.25 hr of the following entry: Cc1cc(Cl)c(COc2cccc3c(-n4cc(F)cn4)cc(C)nc23)c(Cn2cccc(C#N)c2=O)n1 [CFMQ]
80

###

Test: Plasma kinetics, intravenous, beagle dogs
Type: in vivo, female beagle dogs
Details: female, beagle, dog, plasma; IV 1 mg/kg
ENDPOINT_NAME: AUC(0-inf) (ng·h/mL)
Output spec: scalar in ng·h/mL, unitless text.

Please give measured AUC(0-inf) of the following entry: "Cc1cc(Cl)c(COc2cccc3c(-n4cc(F)cn4)cc(C)nc23)c(Cn2cccc(C#N)c2=O)n1"
5270

###

Test: Pharmacokinetics, single oral gavage, 2 formulations, Wistar and Sprague-Dawley rats
Type: in vivo
Details: female, Wistar, rat, plasma, po, 150 mg/kg, Formulation 1, Wistar (Female)
ENDPOINT_NAME: Cmax (ng/mL)
Output spec: scalar in ng/mL, unitless text.

Please give measured Cmax of the following entry: "Cc1cc(Cl)c(COc2cccc3c(-n4cc(F)cn4)cc(C)nc23)c(Cn2cccc(C#N)c2=O)n1"
1850

###

Test: Pharmacokinetics, single oral gavage, CD-1 mice
Assay type: in vivo, female CD-1 mice
Conditions: female, CD-1, mouse, plasma, 250 mg/kg, 480 min, read-out: Average Concentration of HGT3711
ENDPOINT_NAME: concentration at 480 min (ng/mL)
Output spec: scalar in ng/mL, unitless text.

Please give measured concentration at 480 min of the following entry: Cc1cc(Cl)c(COc2cccc3c(-n4cc(F)cn4)cc(C)nc23)c(Cn2cccc(C#N)c2=O)n1 [CFMQ]
45

###

Test: Solubility of CFMQ in vehicles
Format: physicochemical
Settings: PEG400 (polyethylene glycol 400), organic solvent or mixture
ENDPOINT_NAME: solubility (µg/mL)
Output spec: scalar in µg/mL, unitless text.

Please give measured solubility of the following entry: Cc1cc(Cl)c(COc2cccc3c(-n4cc(F)cn4)cc(C)nc23)c(Cn2cccc(C#N)c2=O)n1 [CFMQ]
2370

###

Experiment: Pharmacokinetics, single oral gavage, Yucatan mini-pig
Type: in vivo, female Yucatan Miniature Swine
Conditions: female, Yucatan, pig (miniature swine), plasma; PO 10 mg/kg, 24 hr; read-out: Average Concentration of HGT3711
ENDPOINT_NAME: concentration at 24 hr (ng/mL)
Output spec: scalar in ng/mL, unitless text.

Please give measured concentration at 24 hr of the following entry: Cc1cc(Cl)c(COc2cccc3c(-n4cc(F)cn4)cc(C)nc23)c(Cn2cccc(C#N)c2=O)n1 [CFMQ]
14.2
